meta.source: the supplement of paper PMC9233669

- System: biotinyl-Leu-oxazolone
- TEST NAME: self-aminoacylation, catalytic enhancement (BLO) (fold over background); higher = more active; k-Seq, kA / k0A0; sequences stand for … in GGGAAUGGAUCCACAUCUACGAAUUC…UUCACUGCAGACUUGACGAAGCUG
This sample holds only a part of the variants without activity.
Classification field. Basis: self-aminoacylation. Definitions: category 1 = under 2, category 2 = from 2 up to 4, category 3 = 4 and over

>>> assigned_label("AAGUUUGCUAAUAGUCGCAAC [Fam3.1 aminoacylation ribozyme variant]")
"category 1"
>>> assigned_label("AUUCAGCUCGGUCAUCGGGUG [Fam2.2 aminoacylation ribozyme variant]")
"category 3"
>>> assigned_label("CCAAACUUCAAGCAAUCGUUC [Fam1B.1 aminoacylation ribozyme variant]")
"category 1"
>>> assigned_label("AAGUUUGCUGAUAGUCGCCAG [Fam3.1 aminoacylation ribozyme variant]")
"category 2"
>>> assigned_label("CCACACUCCAAGCAAUCGGGC [Fam1B.1 aminoacylation ribozyme variant]")
"category 1"

In: Determine which band this sequence sits in: CUACUUCAAGCGAUCGGUCUG [Fam1A.1 aminoacylation ribozyme variant]
Out: category 1

In: Place this sequence in its band: AUUUCCCUGGUCCUCGAGUGA [Fam2.1 aminoacylation ribozyme variant]
Out: category 2

In: Tag the class for AUAGACCUAGGUCAUCGGGUG [Fam2.2 aminoacylation ribozyme variant]
Out: category 2

In: Which of the defined bands does the recorded self-aminoacylation of AUUCACCUGGGUCAUCGGGUU [Fam2.2 aminoacylation ribozyme variant] sit within?
Out: category 3

In: Each sequence maps to one class by self-aminoacylation. Which class for AUUCACCUAGAUCAGCGGGUG [Fam2.2 aminoacylation ribozyme variant] ?
Out: category 2

In: Which class holds AUUCACCUAGGGCAUCUGGUG [Fam2.2 aminoacylation ribozyme variant] ?
Out: category 2

In: Band of AUUACCCUGGUAAUCGUGUGA [Fam2.1 aminoacylation ribozyme variant] ?
Out: category 2
